Form field: TGI (one value per entry).
Tested on: 786-0 renal
Assay: NCI tumour cell line growth inhibition, 48 h
Measure Name: TGI

Molecule | Study System | Measurement
O=S(=O)(O)c1cc(O)c(N=Nc2ccc(O)cc2O)c2ccccc12 | 786-0 renal | > 100 µM
CN(C)C(=N/O)/C(=N\O)N(C)C | 786-0 renal | > 100 µM
COC1=CC2(CC(OC)=C1OC)OC21COc2ccccc2C1=O (stereo not drawn) | 786-0 renal | > 100 µM

* * *

Form field: TGI (one value per entry).
System: HOP-62 NSCLC
Assay: NCI tumour cell line growth inhibition, 48 h
Measure Name: TGI

Molecule | Measurement
O=C1/C=C(/c2ccc(O)cc2)[C@@H](O)Cc2ccc(O)cc2O1 | > 100 µM
Cn1c(CO)ccc1-c1ccc(-c2ccc[se]2)[se]1 | 55.1 µM
COc1ccc2c3c([nH]c2c1[N+](=O)[O-])C(C)N(Cc1ccccc1)CC3 (stereo not given) | 7.12 µM
Cc1nc(C)c(N2CCNCC2)c(=O)[nH]1 | > 100 µM
O=C(NC(=O)c1cc(-c2ccccc2)n[nH]1)c1ccccc1 | > 100 µM

* * *

Test system: CCRF-CEM leukemia
Assay: NCI tumour cell line growth inhibition, 48 h; in the data active = GI50 below about 0.43 µM; inactive = the rest
Classes used: label 1 = active, label 0 = inactive

Molecule | Group
Nc1nc([Se])c2ncn(C3OC(CO)C(O)C3O)c2n1 (stereo not given) | label 0
NCCCC[C@@H]1NC(=O)[C@H](CC(=O)O)NC(=O)CNC(=O)[C@H](CCCN=C(N)N)NC(=O)[C@@H](N)CSSC[C@@H](C(=O)O)NC(=O)[C@H](CC(=O)O)NC(=O)[C@@H]2CCCN2C(=O)CNC1=O | label 0
CCC(C)[C@H](NC(=O)Nc1cc(C(F)(F)F)cc(C(F)(F)F)c1)C(=O)N[C@@H](Cc1cn(C)cn1)C(=O)OC (stereo not given in full) | label 1
COc1cc(Nc2ncc(-c3ccccc3)o2)cc(OC)c1 | label 0
COc1ccc2c(c1)c(-c1nc(-c3c[nH]c4ccncc34)cs1)cn2C | label 0

* * *

Form field: TGI (one value per entry).
System: RPMI-8226 leukemia
Assay: NCI tumour cell line growth inhibition, 48 h

Compound | TGI
C[C@@H]1C(=O)C[C@H]2C(C)(C)CCC[C@]2(C)[C@@]1(O)CCc1ccoc1 | > 100 µM
Cc1c(N=Nc2ccccc2)c(C)n(C2OC(CO)C(O)C(O)C2O)c(=S)c1C#N (stereo unspecified) | > 100 µM
COC1=CC2(CC(OC)=C1OC)OC21COc2ccccc2C1=O (stereo unspecified) | > 100 µM
COc1ccc(Cc2coc3ccccc3c2=O)cc1OC | > 100 µM
O=C(CCCN1CCC(O)(c2ccc(Cl)cc2)CC1)c1ccc(F)cc1 | > 100 µM
COC(=O)C1=C(O)[C@H](C(=O)OC)C2(O)C(C(=O)OC)[C@H](c3ccc(OC(=O)C(C)c4ccc(CC(C)C)cc4)cc3)C[C@@H]1[C@@H]2C(=O)OC (stereo partly specified) | > 50 µM

* * *

Form field: TGI (one value per entry).
System: DU-145 prostate
Assay: NCI tumour cell line growth inhibition, 48 h

Compound | TGI
C=CCN(CCNS(=O)(=O)c1ccc(C)cc1)S(=O)(=O)c1ccc(C)cc1 | > 100 µM
Cc1cc(S(=O)(=O)Nc2nnc3cnc4ccccc4n23)c(S)cc1Cl | > 100 µM
CC(C)=CCc1[nH]c2ccccc2c1C1=C(O)C(=O)C(c2c(CC=C(C)C)[nH]c3ccccc23)=C(O)C1=O | 10.9 µM
Nc1nc(Cl)cc(NC2(CO)CCC2)n1 | > 100 µM
CN(C)c1ccc(/C=C(\NC(=O)c2ccccc2)C2=NC(CCC(=O)O)C(=O)O2)cc1 (centres undefined) | > 50 µM
COc1cc(Nc2ncc(-c3ccccc3)o2)cc(OC)c1 | > 25 µM
Cc1oc2c(c1C)S(=O)(=O)C(C#N)=C(N(C)C)N2 | > 100 µM
O=C(/C=C/c1cccc(Oc2ccccc2)c1)NCc1ccc(C(=O)NCCc2ccccc2)cc1 | > 100 µM
Cc1sc2c(c1C)/C(=N\O)c1cccn1-2 | > 100 µM

* * *

Form field: TGI (one value per entry).
Tested on: RPMI-8226 leukemia
Experiment: NCI tumour cell line growth inhibition, 48 h

Compound | Study System | TGI
COc1ccc([C@@H]2CC(=O)N2)cc1 | RPMI-8226 leukemia | > 100 µM
Cc1oc2c(c1C)S(=O)(=O)C(C#N)=C(N(C)C)N2 | RPMI-8226 leukemia | > 100 µM
O=C1C(c2ccc(Br)cc2)=[N+]([O-])c2ccccc21 | RPMI-8226 leukemia | > 100 µM
Cc1cc(S(=O)(=O)Nc2nnc3cnc4ccccc4n23)c(S)cc1Cl | RPMI-8226 leukemia | > 100 µM
CCc1ccc(CCC(=O)Nc2ncc(Cc3ccc(Cl)cc3)s2)o1 | RPMI-8226 leukemia | > 100 µM
Cc1ccc(C2=C(C#N)C(N)OC3=C2COc2ccccc23)cc1 (stereo not drawn) | RPMI-8226 leukemia | > 100 µM
C/C=C1\CN(C(=O)OC(C)(C)C)C1C(=O)OC(C)(C)C (stereo not drawn) | RPMI-8226 leukemia | > 100 µM
COc1ccccc1NC(=O)CC(=O)N1N=C(N2c3ccccc3Sc3ccccc32)CC1c1ccccc1 (stereo not drawn) | RPMI-8226 leukemia | > 100 µM

* * *

Test system: OVCAR-5 ovarian
Test: NCI tumour cell line growth inhibition, 48 h
Measure Name: TGI (µM)

Compound | Study System | Measure Name | Value Units | Qualifier | Measurement
CN(C)CCNC(=O)c1cccc2cc3c(Cl)cccc3nc12 | OVCAR-5 ovarian | TGI | µM | = | 6.68
Cc1cccc(C2SCc3nc4ccccc4n32)c1 (stereo not drawn) | OVCAR-5 ovarian | TGI | µM | = | 65.8
C[C@]12CC[C@H]3[C@@H](CC=C4C[C@@H](N5CCCC5)CC[C@@]43C)[C@@H]1C/C(=C\c1cccc(OCCN3CCOCC3)c1)[C@@H]2O | OVCAR-5 ovarian | TGI | µM | > | 100
Cc1cc(S(=O)(=O)Nc2nnc3cnc4ccccc4n23)c(S)cc1Cl | OVCAR-5 ovarian | TGI | µM | > | 100
CC1=C(/C=C/C(C)=C/C2CC(N(C)C)=CC(=O)O2)C(C)(C)CCC1 (stereo not drawn) | OVCAR-5 ovarian | TGI | µM | = | 24.1
CC(C)(C)c1ccc(Oc2ccc(N)cn2)cc1 | OVCAR-5 ovarian | TGI | µM | > | 100
CC1(C)CCC(C)(C)C1C(=O)NC(O)C(=O)O (stereo not drawn) | OVCAR-5 ovarian | TGI | µM | > | 100
CC1=C(C(=O)Nc2ccccc2)C(c2cccc3ccccc23)C(C(=O)Nc2ccccc2)=C(C)N1 | OVCAR-5 ovarian | TGI | µM | = | 44.6
